Recorded GI50, one value per entry.
tested on: MDA-MB-435; assay: NCI tumour cell line growth inhibition, 48 h
Calls of active or inactive are those of the source. Rule as the data show it: active = GI50 up to about 1.1 µM and inactive = higher.

[
  {
    "molecule": "CC(C)(C)C(=O)OCC1C(=O)OCC1C(=O)N1Cc2cc3ccccc3nc2C1 (stereo not given)",
    "quantity kind": "GI50",
    "meas value": "3.9 µM (inactive)"
  },
  {
    "molecule": "CC(=C(C(=O)O)C(=O)O)c1cc(-c2cccs2)cc(-c2ccc(Cl)cc2)c1O",
    "quantity kind": "GI50",
    "meas value": "15.6 µM (inactive)"
  },
  {
    "molecule": "Cc1occc1/C(S)=N\\c1ccc(Cl)c(C(=O)OCC2CC2)c1",
    "quantity kind": "GI50",
    "meas value": "75.3 µM (inactive)"
  },
  {
    "molecule": "O=c1c2nc3ccccc3c(=O)n2ncn1-c1ccccc1Cl",
    "quantity kind": "GI50",
    "meas value": "> 100 µM (inactive)"
  }
]

Any idea what its GI50 is? The molecule is CCCCc1ccc(Nc2nc(Cl)c3c(ncn3COCCOC(C)=O)n2)cc1
17.7 µM (inactive)
